B1: Osa-1-4 twister ribozyme (parent)
chain: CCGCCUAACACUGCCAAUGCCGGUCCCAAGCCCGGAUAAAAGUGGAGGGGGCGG

- Variants of: B1
- PROTOCOL_DETAILS: self-cleavage, relative activity (ratio to wild type); higher = more cleavage; co-transcriptional
# if value of self-cleavage reaches 0.09, tag satisfied; if it stays below, tag not satisfied

Use these answered entries as a reference point.
CCGCCUAACGCUGCCAAUGCCGCUCCCAAGCCCGGAUAAAAGUGGAGGGGGCGG [A10G G23C]: not satisfied
CCGCCUAACACUUCCAAUGCCCGUCCCAAGCCCGGAUAAAAGUGGAGGGGGCGG [G13U G22C]: not satisfied
CCGCCUAACACUGCCAAUGCCGGUCCCAGGCCCGGAUACAAGUGGAGGGGGCGG [A29G A39C]: not satisfied
CCGCCUAACACUUCCAAUGCCGGUCCCAAUCCCGGAUAAAAGUGGAGGGGGCGG [G13U G30U]: not satisfied
CCGCCUAACACUGCCAAUGCCGGUCCCAAGCCAGGAUAAAAGUGGAGUGGGCGG [C33A G48U]: not satisfied
CCGCCUAAUACUGCCAAUGCCGGUCCCAAGCCCGGAUAAAAGUGAAGGGGGCGG [C9U G45A]: not satisfied
CCGCCUUACACUGCCAAUGCCGGUCCCAAGCCAGGAUAAAAGUGGAGGGGGCGG [A7U C33A]: not satisfied
CCGCCUAACACUGCCAAUGCCGGUCCCAAACCCGGAUAAAACUGGAGGGGGCGG [G30A G42C]: not satisfied
CCGCCUAACACAGCCAAUGCCGGUCCCAAGCCCGGUUAAAAGUGGAGGGGGCGG [A36U U12A]: satisfied
CCGCCUAACAUUGCCAAUGCCGGUCCCAAGCCCGGACAAAAGUGGAGGGGGCGG [C11U U37C]: satisfied

Check the entry CCGCCUGACACUGCCAAUGCCGGUCCCAAGCCCGGAUAAAAGUGGAGGGGCCGG [A7G G51C] : does self-cleavage equal or exceed 0.09?
not satisfied

How about this variant: CCGCCUAACACUGCCAAUGCCGGUCCCAAGCCCGAAUAAAAGUGGAGGUGGCGG [G35A G49U]
satisfied

How about this variant: CCGCCUAACAAUGCCUAUGCCGGUCCCAAGCCCGGAUAAAAGUGGAGGGGGCGG [A16U C11A]
satisfied

How about this variant: CCGCCUAACACUGCCAAUGCCGGUCCCAAUCCCGGAUCAAAGUGGAGGGGGCGG [A38C G30U]
not satisfied

How about this variant: CCGCCUAAUACUGCCAAUGCCGGUCCCAAGCCCGGAUACAAGUGGAGGGGGCGG [A39C C9U]
satisfied

How about this variant: CCGCCUAGCACUGCCAAUGCCGAUCCCAAGCCCGGAUAAAAGUGGAGGGGGCGG [A8G G23A]
satisfied
